# Tested on: Fer (mouse)
# protocol_description: phosphorylation enrichment, bacterial display (enrichment ratio); higher = better substrate or ligand; peptides without Tyr show the background;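 further: 11-residue human phosphosite peptides and single-mutation variants displayed on the E. coli surface, counted by deep sequencing, each peptide's frequency after selection divided by its frequency in the unselected input library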;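 further: frequency after pTyr selection over input frequency; kinase dosed for 20-30% of maximal phosphorylation in three min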
As shown below, each of these sequences has a reported phosphorylation enrichment value.
No unit in the answer, only the number.

Worked examples, 5 sequences total:
{"sequence_entry": "VTNHIYTWVDP [DFNB31_Y234]", "target_or_test_system": "Fer (mouse)", "number": 10.2}
{"sequence_entry": "FRDALYKFMVD [PHEX_Y250_YF]", "target_or_test_system": "Fer (mouse)", "number": 0.676}
{"sequence_entry": "RVLHNYLVWCV [ECEL1_Y400_R404C]", "target_or_test_system": "Fer (mouse)", "number": 0.647}
{"sequence_entry": "ARAHKYHGGGG [HBB_Y146_L142R]", "target_or_test_system": "Fer (mouse)", "number": 0.28}
{"sequence_entry": "YRDALYKFIVD [PHEX_Y250_M253I]", "target_or_test_system": "Fer (mouse)", "number": 0.759}

Incoming: State the recorded phosphorylation enrichment for this entry: RIDPDYMGRVR [IGSF9_Y81_V82M]
Outgoing: 0.4

Incoming: State the recorded phosphorylation enrichment for this entry: DPFHVYIKNRV [KCNE3_Y95_YF]
Outgoing: 0.486

----------
As shown below, each of these sequences has a reported phosphorylation enrichment value.
# target_or_test_system: Hck (UniProt P08631)
# Sequence (P08631 whole entry, looked up): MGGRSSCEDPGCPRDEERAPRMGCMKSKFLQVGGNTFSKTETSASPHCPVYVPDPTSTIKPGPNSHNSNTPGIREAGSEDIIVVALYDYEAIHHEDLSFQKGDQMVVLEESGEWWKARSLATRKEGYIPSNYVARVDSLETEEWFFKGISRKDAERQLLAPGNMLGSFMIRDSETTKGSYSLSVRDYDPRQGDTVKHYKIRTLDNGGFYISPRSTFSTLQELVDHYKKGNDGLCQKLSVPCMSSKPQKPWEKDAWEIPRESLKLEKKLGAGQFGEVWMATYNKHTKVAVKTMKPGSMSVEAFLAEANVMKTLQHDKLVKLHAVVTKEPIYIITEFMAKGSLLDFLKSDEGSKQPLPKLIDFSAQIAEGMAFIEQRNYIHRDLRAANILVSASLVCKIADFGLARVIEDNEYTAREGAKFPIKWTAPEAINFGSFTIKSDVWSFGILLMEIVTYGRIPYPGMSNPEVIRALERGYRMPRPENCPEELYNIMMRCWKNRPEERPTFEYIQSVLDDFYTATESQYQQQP
# protocol_description: phosphorylation enrichment, bacterial display (enrichment ratio); higher = better substrate or ligand; peptides without Tyr show the background
No unit in the answer, only the number.

{"sequence_entry": "CTTTHYNYMCN [TP53_Y234_I232T]", "phosphorylation enrichment": 0.497}
{"sequence_entry": "RPFSPYIIRGM [LRP5_Y1531_R1529S_YF]", "phosphorylation enrichment": 0.719}
{"sequence_entry": "RHLREYQDLLN [DES_Y388]", "phosphorylation enrichment": 0.464}
{"sequence_entry": "YDGGCYEQLFV [MC4R_Y41_S36Y]", "phosphorylation enrichment": 3.08}
{"sequence_entry": "CDLTDYLMKIL [ACTA1_Y190_R185C]", "phosphorylation enrichment": 0.587}
{"sequence_entry": "ALTDNYMYLVI [HAGH_Y61]", "phosphorylation enrichment": 1.34}

Please look at the following sequence next.
Incoming: State the recorded phosphorylation enrichment for this entry: LICRRYLVMQR [IL3RA_Y328_V323L]
Outgoing: 0.729

----------
# target_or_test_system: MERTK (UniProt Q12866)
# Sequence (Q12866 whole entry, looked up): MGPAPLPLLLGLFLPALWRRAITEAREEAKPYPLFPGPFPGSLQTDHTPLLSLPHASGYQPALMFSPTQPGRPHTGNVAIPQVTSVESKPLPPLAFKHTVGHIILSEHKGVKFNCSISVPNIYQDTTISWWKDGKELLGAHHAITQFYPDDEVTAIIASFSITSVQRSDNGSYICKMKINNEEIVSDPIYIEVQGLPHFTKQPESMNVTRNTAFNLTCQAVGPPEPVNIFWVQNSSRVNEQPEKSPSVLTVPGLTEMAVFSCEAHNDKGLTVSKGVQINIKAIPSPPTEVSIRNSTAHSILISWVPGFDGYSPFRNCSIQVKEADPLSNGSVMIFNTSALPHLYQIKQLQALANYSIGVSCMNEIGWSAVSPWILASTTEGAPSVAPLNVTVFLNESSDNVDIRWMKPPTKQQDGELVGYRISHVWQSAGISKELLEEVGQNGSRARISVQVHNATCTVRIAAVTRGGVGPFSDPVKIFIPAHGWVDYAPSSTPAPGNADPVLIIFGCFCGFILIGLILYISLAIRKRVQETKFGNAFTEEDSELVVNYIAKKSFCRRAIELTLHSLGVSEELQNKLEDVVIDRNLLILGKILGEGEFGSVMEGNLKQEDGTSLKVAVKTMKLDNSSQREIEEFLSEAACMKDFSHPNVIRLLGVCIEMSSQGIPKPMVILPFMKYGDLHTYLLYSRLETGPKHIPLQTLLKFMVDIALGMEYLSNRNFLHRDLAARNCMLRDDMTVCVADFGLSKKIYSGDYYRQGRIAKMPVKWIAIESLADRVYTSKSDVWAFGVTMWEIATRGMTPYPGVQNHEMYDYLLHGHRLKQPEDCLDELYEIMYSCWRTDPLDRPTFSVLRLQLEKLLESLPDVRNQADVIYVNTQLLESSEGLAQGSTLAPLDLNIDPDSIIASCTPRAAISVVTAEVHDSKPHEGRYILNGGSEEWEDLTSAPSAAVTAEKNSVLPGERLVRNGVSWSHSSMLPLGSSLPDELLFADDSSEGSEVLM
# protocol_description: phosphorylation enrichment, bacterial display (enrichment ratio); higher = better substrate or ligand; peptides without Tyr show the background
metric_name: phosphorylation enrichment

Worked examples, 8 sequences total:
{"sequence_entry": "RFLTRYIFNRE [HLA-DQB1_Y62_V59L_YF]", "metric_name": "phosphorylation enrichment", "result": 0.578}
{"sequence_entry": "EEGENYQKGER [CHGB_Y173]", "metric_name": "phosphorylation enrichment", "result": 0.425}
{"sequence_entry": "DSYWSYCNAVA [SLC20A2_Y436_S434W]", "metric_name": "phosphorylation enrichment", "result": 0.952}
{"sequence_entry": "QEIATYRRLPE [KRT16_Y417_L421P]", "metric_name": "phosphorylation enrichment", "result": 0.489}
{"sequence_entry": "KGIDRYNPENL [EIF3K_Y21]", "metric_name": "phosphorylation enrichment", "result": 0.414}
{"sequence_entry": "RSSNTYTLTDV [ALCAM_Y298]", "metric_name": "phosphorylation enrichment", "result": 0.766}
{"sequence_entry": "IMAFFYMCDRA [CASD1_Y382_YF]", "metric_name": "phosphorylation enrichment", "result": 0.544}
{"sequence_entry": "CNRADYSKLAS [GNE_Y22_P27S]", "metric_name": "phosphorylation enrichment", "result": 0.441}

Please look at the following sequence next.
Incoming: State the recorded phosphorylation enrichment for this entry: QLHEHYKIHKE [NSMAF_Y626]
Outgoing: 0.878
